Listing of recorded Relative permeation by entry.
Test: Permeation test of antiprogestins through elastomer membranes (two-compartment diffusion cell)
Type: physicochemical
Settings: composition type B, PEO concentration 9.8 % by weight; 0.4 mm membrane, 37° C.; relative to reference elastomer
measurement name: Relative permeation

- CC(=O)c1ccc([C@H]2C[C@@]3(C)[C@@H](CC[C@@]3(O)C(F)(F)C(F)(F)F)[C@@H]3CCC4=CC(=O)CCC4=C32)cc1: 27.6
- CCSC(=O)O/N=C/c1ccc([C@H]2C[C@@]3(C)[C@@H](CC[C@@]3(COC)OC)[C@@H]3CCC4=CC(=O)CCC4=C32)cc1: 6.4
- CCNC(=O)ON=Cc1ccc(C2CC3(C)C(CCC3(COC)OC)C3CCC4=CC(=O)CCC4=C23)cc1 (stereo not shown): 17.3
- CN(C)c1ccc([C@H]2C[C@@]3(C)[C@@H](CC[C@@]3(O)/C=C\CO)[C@@H]3CCC4=CC(=O)CC[C@@H]4[C@H]32)cc1: 37.2
